Test system: 786-0 renal
Assay: NCI tumour cell line growth inhibition, 48 h
property: TGI (µM)
One number for each entry, in µM.

>>> print(df.to_string())
                                   compound  value_unit  test_result
0  C[C@@H]1O[C@@H]2OCC[C@@H]2C2=C1C(=O)c1ccccc1C2=O          µM         29.1

Please give TGI for each item listed below.
1. COc1cc2c(C#N)n3c(c2cc1OC)C(=O)C(c1ccccc1)Oc1ccccc1-3 (stereo not drawn)
2. CC(C)(C)c1ccc(NC(=O)c2cc(=O)c3ccccc3[nH]2)c(C(C)(C)C)c1O

[39.1, 12.1]

====

Tested on: A549 NSCLC
Assay: NCI tumour cell line growth inhibition, 48 h
Hi there, I'd appreciate the recorded TGI for every entry that follows.

Some solved entries appear below for comparison.
In [3]: df
Out[3]:
                                   compound  property  test_result
0             CNC(=S)N/N=C(\C)c1ccc(OC)cc1O       TGI     > 100 µM
1               NC(=O)c1nnc2cc(F)c(F)cc2c1N       TGI     > 100 µM
2  c1ccc(N=C2SC(c3ccccc3)CN2C23CC4CC(CC(C4)C2)C3)cc1 (centres undefined)       TGI     > 100 µM
3  O=C1c2ccccc2C(=O)N1C/C=N/NS(=O)(=O)c1ccc(Cl)cc1       TGI     > 100 µM

Please give TGI for each item listed below.
1. CN1CCN(c2ccc(NC3=C(Cl)C(=O)c4ncccc4C3=O)cc2C(F)(F)F)CC1
2. O=C(O)c1cc2c3c(c1)[C@H]1C=CC[C@H]1CN3CC1CC=CC21 (some centres undefined)
3. CC(=O)O[C@H]1CC[C@]2(C)[C@H]3C(=O)C=C4[C@@H]5C[C@](C)(C(=O)N6CCCNCC6)CC[C@]5(C)CC[C@@]4(C)[C@]3(C)CC[C@H]2C1(C)C
4. C=C(/C=C/C=C(/CCC=C(C)C)COC(C)=O)[C@@H]1CC[C@]2([C@H](CCCO)/C(=C(/C)C=O)CC[C@]2(C)O)[C@@H]1O
5. COC(=O)c1ccc(/C=N/c2cc(C)nn2-c2ccccc2)cc1

1: 38 µM; 2: > 100 µM; 3: 4.67 µM; 4: 26.2 µM; 5: > 100 µM

====

Test system: HCT-116 colon
Experiment: NCI tumour cell line growth inhibition, 48 h
property: TGI

Some solved entries appear below for comparison.
>>> print(df.to_string())
                                   compound  test_result
0  C=C(C)[C@@H]1CC[C@]2(C)[C@H](CC=C3[C@@H]4CC(C)(C)CC[C@]4(C(=O)OC)CC[C@]32C)[C@@]1(C)CC/C(N)=N/O      3.05 µM
1  COc1cc2c(c(OC)c1OC)C(=O)c1c-2n(CCCN)c(=O)c2cc([N+](=O)[O-])ccc12     0.274 µM
2  COc1cc(C(CN)N(C)C)cc(OC)c1OC (stereo not given)     > 100 µM
3  COC(=O)c1ccccc1C1CN=NC12Cc1c(C)c3c(c(C)c1C2=O)CCC3 (stereo not given)     > 100 µM

Observed TGI on HCT-116 colon, entry CN(C)CCCNC(=O)c1cc(NC(=O)CCCn2c3ccccc3c3ccccc32)cn1C , equals > 100 µM
